- Tested on: Moraxella catarrhalis (BCA)
- protocolSummary: MIC, two-fold agar dilution (CLSI), clinical isolates
- Format: cell-based
- runParameters: clinical isolate BCA 14-6
Can you tell me Anti-bacterial activity (MIC), strain BCA 14-6 for the items I'm about to list?
Give the value in µg/mL but do not write µg/mL after it.

Req: Look at this molecule and give its reported Anti-bacterial activity (MIC), strain BCA 14-6. CCCC[C@H](CC(=O)NO)C(=O)N1CC2(CC2)C[C@H]1C(=O)Nc1ncc(C)s1 [Example 47]
Resp: 2

Req: What do you have for O=C(C[C@@H](CC1CCCC1)C(=O)N1CC2(CC2)C[C@H]1C(=O)Nc1cnccn1)NO [Example 62] ?
Resp: 2

Req: What do you have for O=CN(O)C[C@@H](CC1CCCC1)C(=O)N1CC2(CC2)C[C@H]1C(=O)Nc1nccs1 (stereo in doubt) [Example 40] ?
Resp: 0.5

Req: What do you have for CCCC[C@H](CC(=O)NO)C(=O)N1CC2(CC2)C[C@H]1C(=O)Nc1cc(C)on1 [Example 56] ?
Resp: 8

Req: What do you have for CCCC[C@H](CC(=O)NO)C(=O)N1CC2(CC2)C[C@H]1C(=O)Nc1nc(C)cs1 [Example 51] ?
Resp: 1

Req: What do you have for Cc1cnc(NC(=O)[C@@H]2CC3(CC3)CN2C(=O)[C@@H](CC(=O)NO)CC2CCCC2)s1 [Example 65] ?
Resp: 0.125

Req: What do you have for CCCC[C@H](CC(=O)NO)C(=O)N1CC2(CC2)C[C@H]1C(=O)Nc1ccc(N2CCOCC2)cc1 [Example 43] ?
Resp: 1

Req: What do you have for CCCC[C@H](CC(=O)NO)C(=O)N1CC2(CC2)C[C@H]1C(=O)Nc1ccncn1 [Example 45] ?
Resp: 0.5

Req: What do you have for O=CN(O)C[C@@H](CC1CCCC1)C(=O)N1CC2(CC2)C[C@H]1c1nc2ccccc2[nH]1 [Example 42] ?
Resp: 2

Req: What do you have for O=C(C[C@@H](CC1CCCC1)C(=O)N1CC2(CC2)C[C@H]1C(=O)Nc1ccc(F)cn1)NO [Example 64] ?
Resp: 1

Req: What do you have for O=CN(O)C[C@@H](CC1CCCC1)C(=O)N1CC2(CC2)C[C@H]1C(=O)Nc1nncs1 [Example 41] ?
Resp: 4

Req: What do you have for O=C(C[C@@H](CC1CCCC1)C(=O)N1CC2(CC2)C[C@H]1C(=O)Nc1ccc(N2CCOCC2)cc1)NO [Example 61] ?
Resp: 1

Req: What do you have for O=C(C[C@@H](CC1CCCC1)C(=O)N1CC2(CC2)C[C@H]1C(=O)Nc1ccncn1)NO [Example 63] ?
Resp: 0.25

Req: What do you have for CCCC[C@H](CC(=O)NO)C(=O)N1CC2(CC2)C[C@H]1C(=O)Nc1ccc(F)cn1 [Example 46] ?
Resp: 0.5

Req: What do you have for CCCC[C@H](CC(=O)NO)C(=O)N1CC2(CC2)C[C@H]1C(=O)Nc1nc(C(F)(F)F)cs1 [Example 57] ?
Resp: 1

Req: What do you have for CCCC[C@H](CC(=O)NO)C(=O)N1CC2(CC2)C[C@H]1C(=O)Nc1cnccn1 [Example 44] ?
Resp: 2

Req: What do you have for CCCC[C@H](CC(=O)NO)C(=O)N1CC2(CC2)C[C@H]1C(=O)Nc1cc(C(C)(C)C)on1 [Example 55] ?
Resp: 2
